- test: Clearance in Sprague-Dawley rat 1 mg/kg, iv
- Type: ADME, organism-based
- Set-up: dose 1 mg/kg, route intravenous
- conditions_used: in vivo

[
  {
    "smiles_data": "Cc1ccc(C(=O)NC2CC2)cc1-c1ccc2c(N3CCOCC3)nncc2c1",
    "clearance (mL/min/kg)": 28.3
  }
]

* * *

Measured pIC50, listed per entry.
- study_target: UniProt P06239
- Sequence (P06239 whole entry): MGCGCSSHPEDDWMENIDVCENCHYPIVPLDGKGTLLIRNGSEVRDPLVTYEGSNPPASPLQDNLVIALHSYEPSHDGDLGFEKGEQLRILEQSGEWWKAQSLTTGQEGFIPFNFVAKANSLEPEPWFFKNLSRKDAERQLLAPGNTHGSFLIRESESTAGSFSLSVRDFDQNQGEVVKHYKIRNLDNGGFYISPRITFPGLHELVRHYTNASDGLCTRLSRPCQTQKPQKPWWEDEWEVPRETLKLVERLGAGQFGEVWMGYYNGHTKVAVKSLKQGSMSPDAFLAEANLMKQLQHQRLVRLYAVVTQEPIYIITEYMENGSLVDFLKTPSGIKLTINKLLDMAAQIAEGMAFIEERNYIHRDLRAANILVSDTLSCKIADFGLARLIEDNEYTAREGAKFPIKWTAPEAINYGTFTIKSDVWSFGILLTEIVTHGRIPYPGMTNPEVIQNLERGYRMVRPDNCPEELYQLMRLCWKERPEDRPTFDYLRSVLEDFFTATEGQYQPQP
pIC50: −log10 of the molar value.

[
  {
    "smiles_data": "Cc1ccc(C(=O)NC2CC2)cc1-c1ccc2c(N3CCOCC3)nncc2c1",
    "result_comparator": "=",
    "pIC50": 5.42
  },
  {
    "smiles_data": "Cc1ccc(C(=O)NC2CC2)cc1-c1ccc2c(O[C@@H](C)C(F)(F)F)nncc2c1",
    "result_comparator": "<",
    "pIC50": 5.30
  },
  {
    "smiles_data": "Cc1ccc(C(=O)NC2CC2)cc1-c1ccc2c(-c3ccccc3)nncc2c1",
    "result_comparator": "=",
    "pIC50": 5.87
  }
]

* * *

- study_target: Tyrosine-protein kinase Lyn (Homo sapiens, UniProt P07948)
- Sequence (P07948 whole entry): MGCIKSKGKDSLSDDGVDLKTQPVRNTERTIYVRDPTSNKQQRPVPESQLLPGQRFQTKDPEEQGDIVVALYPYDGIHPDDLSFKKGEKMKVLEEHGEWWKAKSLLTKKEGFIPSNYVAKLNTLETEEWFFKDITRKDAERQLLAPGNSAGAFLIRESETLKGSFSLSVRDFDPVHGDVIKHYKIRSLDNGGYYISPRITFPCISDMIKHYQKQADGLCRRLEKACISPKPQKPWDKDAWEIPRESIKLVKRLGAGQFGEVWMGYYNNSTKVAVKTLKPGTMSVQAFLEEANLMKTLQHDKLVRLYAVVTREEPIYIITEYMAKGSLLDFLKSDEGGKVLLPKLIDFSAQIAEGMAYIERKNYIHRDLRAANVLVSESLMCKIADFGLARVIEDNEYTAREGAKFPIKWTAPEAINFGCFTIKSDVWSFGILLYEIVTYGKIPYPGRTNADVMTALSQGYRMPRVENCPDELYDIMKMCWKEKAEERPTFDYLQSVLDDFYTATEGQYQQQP
endpoint: IC50 (nM)

[
  {
    "smiles_data": "Cc1ccc(C(=O)NC2CC2)cc1-c1ccc2c(O[C@@H](C)C(F)(F)F)nncc2c1",
    "study_target": "Tyrosine-protein kinase Lyn (Homo sapiens, UniProt P07948)",
    "value_measured": 954
  }
]

* * *

- study_target: Mast/stem cell growth factor receptor Kit (Homo sapiens, UniProt P10721)
- Sequence (P10721 whole entry): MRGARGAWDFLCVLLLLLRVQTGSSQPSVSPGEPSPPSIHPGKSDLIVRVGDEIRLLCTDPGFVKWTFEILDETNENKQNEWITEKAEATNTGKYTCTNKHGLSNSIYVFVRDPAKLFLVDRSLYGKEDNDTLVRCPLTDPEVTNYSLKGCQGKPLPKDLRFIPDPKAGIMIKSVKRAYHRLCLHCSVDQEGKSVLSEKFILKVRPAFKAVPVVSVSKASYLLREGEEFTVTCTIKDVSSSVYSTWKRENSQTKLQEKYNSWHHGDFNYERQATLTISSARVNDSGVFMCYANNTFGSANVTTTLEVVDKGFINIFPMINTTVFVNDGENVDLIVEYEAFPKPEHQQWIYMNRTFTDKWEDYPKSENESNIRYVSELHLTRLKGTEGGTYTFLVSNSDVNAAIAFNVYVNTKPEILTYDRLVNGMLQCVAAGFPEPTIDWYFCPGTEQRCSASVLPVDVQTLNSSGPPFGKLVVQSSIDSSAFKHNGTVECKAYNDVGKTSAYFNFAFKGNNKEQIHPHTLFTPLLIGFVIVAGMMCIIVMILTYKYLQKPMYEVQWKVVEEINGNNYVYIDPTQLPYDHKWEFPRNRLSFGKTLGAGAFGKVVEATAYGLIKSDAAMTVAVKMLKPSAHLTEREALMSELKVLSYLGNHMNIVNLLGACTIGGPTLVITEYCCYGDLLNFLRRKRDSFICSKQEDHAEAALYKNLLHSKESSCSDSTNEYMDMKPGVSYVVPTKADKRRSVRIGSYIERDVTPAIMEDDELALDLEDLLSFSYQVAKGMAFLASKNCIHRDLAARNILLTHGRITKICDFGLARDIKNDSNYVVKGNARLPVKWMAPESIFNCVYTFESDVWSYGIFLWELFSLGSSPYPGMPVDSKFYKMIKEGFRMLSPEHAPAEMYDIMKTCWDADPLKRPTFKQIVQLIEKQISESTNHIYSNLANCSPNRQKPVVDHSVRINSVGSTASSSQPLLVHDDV
- test: Inhibition of cKit
pIC50: −log10 of the molar value.
Measured pIC50, listed per entry.

[
  {
    "smiles_data": "Cc1ccc(C(=O)NC2CC2)cc1-c1ccc2c(N3CCOC[C@@H]3C)nncc2c1",
    "result_comparator": "=",
    "pIC50": 5.70
  },
  {
    "smiles_data": "Cc1ccc(C(=O)NC2CC2)cc1-c1ccc2c(O[C@@H](C)C(F)(F)F)nncc2c1",
    "result_comparator": "=",
    "pIC50": 5.97
  },
  {
    "smiles_data": "O=C(NC1CC1)c1cccc(-c2ccc3c(N4CCOCC4)nncc3c2)c1",
    "result_comparator": "<",
    "pIC50": 5.08
  },
  {
    "smiles_data": "Cc1ccc(C(=O)NC2CC2)cc1-c1ccc2c(NCCN3CCOCC3)nncc2c1",
    "result_comparator": "=",
    "pIC50": 5.97
  },
  {
    "smiles_data": "Cc1ccc(C(=O)NC2CC2)cc1-c1ccc2c(O[C@H](C)C(F)(F)F)nncc2c1",
    "result_comparator": "=",
    "pIC50": 5.93
  },
  {
    "smiles_data": "Cc1ccc(C(=O)NC2CC2)cc1-c1ccc2c(OC(C)C)cncc2c1",
    "result_comparator": "=",
    "pIC50": 7.39
  }
]

* * *

- study_target: UniProtKB P35968
- Sequence (P35968 whole entry): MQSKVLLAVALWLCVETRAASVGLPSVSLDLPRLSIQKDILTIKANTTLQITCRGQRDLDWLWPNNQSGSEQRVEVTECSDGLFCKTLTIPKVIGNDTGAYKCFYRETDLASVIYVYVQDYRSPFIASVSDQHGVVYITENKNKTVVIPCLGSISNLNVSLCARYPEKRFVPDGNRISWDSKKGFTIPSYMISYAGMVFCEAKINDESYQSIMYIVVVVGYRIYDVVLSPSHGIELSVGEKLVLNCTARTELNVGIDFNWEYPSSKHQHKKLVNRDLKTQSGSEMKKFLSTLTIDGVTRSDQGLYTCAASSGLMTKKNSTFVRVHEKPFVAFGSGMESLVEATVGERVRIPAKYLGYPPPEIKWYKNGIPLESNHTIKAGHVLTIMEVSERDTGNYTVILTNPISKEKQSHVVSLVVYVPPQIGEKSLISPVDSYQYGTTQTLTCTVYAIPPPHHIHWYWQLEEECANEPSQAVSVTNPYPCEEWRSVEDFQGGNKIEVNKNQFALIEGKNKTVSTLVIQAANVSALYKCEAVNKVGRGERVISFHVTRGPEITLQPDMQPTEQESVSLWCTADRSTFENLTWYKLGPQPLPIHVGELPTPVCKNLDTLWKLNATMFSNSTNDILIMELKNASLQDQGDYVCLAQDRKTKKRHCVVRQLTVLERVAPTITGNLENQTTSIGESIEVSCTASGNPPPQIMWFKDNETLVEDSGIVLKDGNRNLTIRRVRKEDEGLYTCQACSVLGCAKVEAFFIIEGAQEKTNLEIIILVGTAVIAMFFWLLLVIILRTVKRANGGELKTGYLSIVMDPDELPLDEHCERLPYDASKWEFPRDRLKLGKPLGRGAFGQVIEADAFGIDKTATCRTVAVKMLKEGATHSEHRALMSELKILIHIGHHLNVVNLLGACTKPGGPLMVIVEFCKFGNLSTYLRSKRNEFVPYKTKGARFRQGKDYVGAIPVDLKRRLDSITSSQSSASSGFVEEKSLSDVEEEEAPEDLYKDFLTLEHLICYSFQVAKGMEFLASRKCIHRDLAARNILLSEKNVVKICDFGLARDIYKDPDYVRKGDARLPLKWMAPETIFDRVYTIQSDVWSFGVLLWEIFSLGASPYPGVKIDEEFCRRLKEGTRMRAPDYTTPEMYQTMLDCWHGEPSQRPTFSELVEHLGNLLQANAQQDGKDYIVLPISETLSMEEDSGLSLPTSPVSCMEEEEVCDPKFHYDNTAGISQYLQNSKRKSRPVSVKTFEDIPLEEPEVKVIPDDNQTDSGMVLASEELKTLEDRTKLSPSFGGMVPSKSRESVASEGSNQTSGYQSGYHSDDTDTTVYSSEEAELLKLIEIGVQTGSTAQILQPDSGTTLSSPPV
pIC50: −log10 of the molar value.
Measured pIC50, listed per entry.

[
  {
    "smiles_data": "Cc1ccc(C(=O)NC2CC2)cc1-c1ccc2c(O[C@@H](C)C(F)(F)F)nncc2c1",
    "study_target": "UniProtKB P35968",
    "pIC50": 5.57
  },
  {
    "smiles_data": "Cc1ccc(C(=O)NC2CC2)cc1-c1ccc2c(-c3ccccc3)nncc2c1",
    "study_target": "UniProtKB P35968",
    "pIC50": 5.20
  },
  {
    "smiles_data": "Cc1ccc(C(=O)NC2CC2)cc1-c1ccc2c(N3CCOC[C@@H]3C)nncc2c1",
    "study_target": "UniProtKB P35968",
    "pIC50": 5.07
  },
  {
    "smiles_data": "Cc1ccc(C(=O)NC2CC2)cc1-c1ccc2c(NCCN3CCOCC3)nncc2c1",
    "study_target": "UniProtKB P35968",
    "pIC50": 5.29
  }
]

Origin of values: ChEMBL document CHEMBL1140163
